System: SF-268
details: read-out: LC50; SF-268, CNS, 48 h
reported_endpoint: CC50 (µM)
Answers are plain numbers, in µM.

Please tell me: CC50 of CC(=O)C=CSc1nc(N)nc2nc[nH]c12 [trans-AVTG, 6-(2-acetylvinylthio) guanine] , system SF-268?
24.4

----------
Test system: HOP-62
details: read-out: LC50; HOP-62, Non-Small Cell Lung, 48 h
reported_endpoint: CC50

// query CC50 value for entry CC(=O)C=CSc1nc(N)nc2nc[nH]c12 [trans-AVTG, 6-(2-acetylvinylthio) guanine]
> 100 µM

----------
System: SK-MEL-28
details: read-out: LC50; SK-MEL-28, Melanoma, 48 h
reported_endpoint: CC50 (µM)
Give bare numbers, in µM.

# CC50 lookup, item CC(=O)C=CSc1nc(N)nc2nc[nH]c12 [trans-AVTG, 6-(2-acetylvinylthio) guanine]
52.7

----------
Test system: HT29
details: read-out: LC50; HT29, Colon, 48 h
reported_endpoint: CC50 (µM)
One number for each entry, in µM.

May I ask what CC50 has been recorded for CC(=O)C=CSc1nc(N)nc2nc[nH]c12 [trans-AVTG, 6-(2-acetylvinylthio) guanine] ?
60.4

----------
Tested on: RPMI-8226
details: read-out: LC50; RPMI-8226, Leukemia, 48 h
reported_endpoint: CC50

Query: CC50; subject: CC(=O)C=CSc1nc(N)nc2nc[nH]c12 [trans-AVTG, 6-(2-acetylvinylthio) guanine]
> 100 µM

----------
System: UACC-62
details: read-out: LC50; UACC-62, Melanoma, 48 h
reported_endpoint: CC50 (µM)
One number for each entry, in µM.

What value of CC50 has been recorded for this entry: CC(=O)C=CSc1nc(N)nc2nc[nH]c12 [trans-AVTG, 6-(2-acetylvinylthio) guanine]
24.9

----------
Test system: HS 578T
details: read-out: LC50; HS 578T, Breast, 48 h
reported_endpoint: CC50

Given the compound CC(=O)C=CSc1nc(N)nc2nc[nH]c12 [trans-AVTG, 6-(2-acetylvinylthio) guanine] , what is its reported CC50?
> 100 µM

----------
System: MDA-MB-435
details: read-out: LC50; MDA-MB-435, Breast, 48 h
reported_endpoint: CC50
Respond with the figure and its unit, in that order.

Short answer please: CC50, MDA-MB-435, entry CC(=O)C=CSc1nc(N)nc2nc[nH]c12 [trans-AVTG, 6-(2-acetylvinylthio) guanine]
51.5 µM

----------
Reported values: median TGI for Prostate cell lines, one per item.
One number for each entry, in µM.

{"columns": ["molecule", "median TGI / µM"],
 "data": [
  ["CC(=O)C=CSc1ncnc2nc[nH]c12 [cis-AVTP, 6-(2-acetylvinylthio) purine]", 7.09]
]}

Now consider a different molecule.
What value of median TGI has been recorded for this entry: CC(=O)C=CSc1nc(N)nc2nc[nH]c12 [trans-AVTG, 6-(2-acetylvinylthio) guanine]
19.7
